# System: HL-60
# Procedure Text: NCI tumour cell line growth inhibition, 48 h
Active and inactive are the calls of the source. Cut-off read from the data, not from the text of the source: active = GI50 up to about 1.1 µM and inactive = higher.
Pick one and only one: yes = active, no = inactive

Previously resolved entries follow.
Compound	Experimental Target	Qualitative Label
O=C(CCC(NC(=O)OCc1ccccc1)C(=O)OCc1ccccc1)Nc1ccc(OCc2ccccc2)cc1 (stereo unspecified)	HL-60	no
C=C1C(=O)O[C@@H]2C[C@@]3(C)CCCC(=C)[C@@H]3C[C@H]12.C=C1C(=O)O[C@@H]2C[C@@]3(C)CCC[C@H](C)C3=C[C@H]12	HL-60	no
CCOc1ccc2c(c1)[n+]([O-])c(-c1ccc(Br)cc1)c(N)[n+]2[O-]	HL-60	no
C/C=C/C(O)P1(=O)N(Cc2ccccc2)[C@@H]2CCCC[C@H]2N1Cc1ccccc1 (stereo partly specified)	HL-60	no
C=CC1C2=C(C(=O)NCC2)C2OC(O)C3=C(CCNC3=O)C2C1C (stereo unspecified)	HL-60	no

Per the assay record, what outcome was assigned to CC[C@@]1(O)C(=O)OCc2c1cc1n(c2=O)Cc2c-1nc1ccccc1c2/C=N\NC(=O)C(N)CCSC (stereo partly specified) ? yes

###

# Tested on: DU-145
# Procedure Text: NCI tumour cell line growth inhibition, 48 h
Calls of active or inactive are those of the source. Cut-off read from the data, not from the text of the source: active = GI50 up to about 1.1 µM and inactive = higher.
Would you mind answering with one of these outcomes? 1 = active, -1 = inactive

In [3]: df
Out[3]:
                                   molecule  qualitative_label
0  CC(=O)Nc1ccc2c3c(cc(O)c2c1)N(C(=O)CCCC(=O)N1CC(CCl)c2c1cc(O)c1cc(NC(C)=O)ccc21)CC3CCl (stereo not drawn)                  1
1                O=C(O)/C=N/NC(=S)NC1CCCCC1                 -1
2  CC(C)(C)[Si](C)(C)OCCCCC1CC2(S(=O)(=O)C3=CC=C=C=C3)ON1CC2S(=O)(=O)c1ccccc1 (stereo not drawn)                 -1
3           COc1ccc2c(c1)OCC1=C2Oc2ccccc2C1                 -1

# fetch the recorded call for S=C1NNC(=S)NN1 here 1

Also need CSC1=N/C(=C\c2ccc(C)cc2)C(=O)N1CN1CCOCC1 , thanks. -1

Next entry: Fc1cccc(F)c1C(Nc1nncs1)Nc1nncs1 -1

Quick one: N#C/C(N)=C(C#N)/N=C/N -1

Ok, now COc1cccc(C2C3=C(COC3=O)Oc3cc4c(cc32)OCO4)c1 (stereo not drawn) 1

Next up: C=C(C)CNCCN -1

Also need O=C(NCc1ccccc1)c1cc2ccccc2o/c1=N\c1cccc(C(F)(F)F)c1 , thanks. -1

Another molecule: CN1CSC(=S)N(c2c3ccccc3nc3ccc(Br)cc23)C1 -1

Further, for COc1ccc(/C=C2\CCC(CN(C)C)C2=O)cc1 (stereo not drawn) ? -1

Now consider NC(=O)[N+](=CC(=S)Nc1ccccc1Cl)C(N)=O . -1

Another molecule: O=c1[nH]nc(Nc2ccccc2)c2nnn(C3CCCCC3)c12 -1

Query CC(C)(C)/C(O)=C\c1nc2cc(C(F)(F)F)ccc2[nH]c1=O next -1

###

# Tested on: M14
# Procedure Text: NCI tumour cell line growth inhibition, 48 h
Activity calls are given as the source filed them. No stated cut-off is given here; in the data, active = GI50 up to about 1.1 µM and inactive = higher.
Quick reference: GI50 of the listed items.

>>> print(df.to_string())
                                   molecule  experimental_target  reported_metric       measured_value
0  O=C1N/C(=N\C2CCCCC2)C2(CCN(CCCC3(c4ccc(F)cc4)OCCO3)CC2)N1c1ccccc1                  M14             GI50   19.4 µM (inactive)
1              COc1ccc2oc(=N)c(C(N)=O)cc2c1                  M14             GI50   87.3 µM (inactive)
2  CC1=C(C(=O)Nc2ccccc2)C(c2ccc(C)o2)C(C#N)=C(SCc2ccccc2)N1 (stereo not drawn)                  M14             GI50  > 100 µM (inactive)
3   O=c1[nH]nc(Nc2ccccc2)c2nnn(C3CCCCC3)c12                  M14             GI50  > 100 µM (inactive)
4         CC1(C)CN=C(Nc2cccc(C(F)(F)F)c2)S1                  M14             GI50  > 100 µM (inactive)

Observed GI50 on M14 for CCn1c2ccccc2c2ccc3c(c21)C(=O)C=CC3=O , please. 3.93 µM (inactive)

Also check CC1=C(Cl)C[C@@H](/C(C)=C\Cl)O[C@@]1(O)C(Br)Br 22.5 µM (inactive)

###

# Test system: KM12
# Procedure Text: NCI tumour cell line growth inhibition, 48 h
Activity calls are given as the source filed them. Rule as the data show it: active = GI50 up to about 1.1 µM and inactive = higher.
Reported Metric: GI50

>>> df
                                   molecule       measured_value
0  CCOC(=O)/C(=C\c1ccc(N(C)C)cc1)S(=O)(=O)C(F)(F)C(F)(F)C(F)(F)C(F)(F)F  > 100 µM (inactive)
1  COC(=O)C1=C(C(=O)OC)C2(C(=O)OC)OC1(OC)C(C1(C(=O)OC)C(C(=O)OC)=C1C(=O)OC)=C2C(=O)OC (centres undefined)  > 100 µM (inactive)
2  O=C1CC(n2cccc2)c2c(Br)sc(Br)c21 (centres undefined)   7.23 µM (inactive)

Consider now this further molecule.
Please look up its GI50: Cc1cc2c(cc1C)[n+]([O-])c(C(=O)CC(=O)C(=O)Nc1ccccc1C)c(C)[n+]2[O-] > 100 µM (inactive)

###

Below, each of the molecules is paired with its reported GI50 value.
# Test system: SNB-19
# Procedure Text: NCI tumour cell line growth inhibition, 48 h
Activity calls are given as the source filed them. Cut-off read from the data, not from the text of the source: active = GI50 up to about 1.1 µM and inactive = higher.

>>> df
                                   molecule       measured_value
0  Cc1[nH]nc(C(=O)N/N=C/c2cccs2)c1/N=N\N(C)C   8.38 µM (inactive)
1             O=C(O)c1cc2c3ccccc3nc-2c[nH]1  > 100 µM (inactive)
2  CC(=O)Nc1ccc2c3c(cc(O)c2c1)N(C(=O)CCCC(=O)N1CC(CCl)c2c1cc(O)c1cc(NC(C)=O)ccc21)CC3CCl (centres undefined)   < 0.01 µM (active)

Data request, read-out GI50, for CC(C)=c1sc(=C(C)C)c2c1=NC(C)(C)N=2 > 100 µM (inactive)

###

# Test system: NCI-H460
# Procedure Text: NCI tumour cell line growth inhibition, 48 h
Activity calls are given as the source filed them. No stated cut-off is given here; in the data, active = GI50 up to about 1.1 µM and inactive = higher.
Reported Metric: GI50

Below, each entry is followed by its recorded GI50 result.
                                   molecule  experimental_target  reported_metric       measured_value
0  O=C1c2cc([N+](=O)[O-])cnc2S(=O)(=O)N1c1ccc(Oc2ccccc2)cc1             NCI-H460             GI50  > 100 µM (inactive)
1  CCN(CC)Cc1cc(Nc2ccnc3ccc4nn(C)nc4c23)ccc1O             NCI-H460             GI50   5.64 µM (inactive)
2                               C=CC1=CSNN1             NCI-H460             GI50  > 100 µM (inactive)
3  O=C1/C(=C/c2ccc(Cl)cc2)N=C(c2ccccc2)N1c1nc2ccccc2s1             NCI-H460             GI50   57.4 µM (inactive)
4  O[C@@H]1C[C@H]2N3CC[C@@]2(c2cc4c(cc2C3)OCO4)[C@H]2O[C@@H]12             NCI-H460             GI50  > 100 µM (inactive)

# input for lookup
Given the entry Cc1nc2c(O)cc3c4c(=O)n(C)c(=O)n(C)c4n(Cc4ccccc4)c3c2nc1C , what GI50 was observed with NCI-H460? 45.8 µM (inactive)

###

# Tested on: UO-31
# Procedure Text: NCI tumour cell line growth inhibition, 48 h
Activity calls are given as the source filed them. No stated cut-off is given here; in the data, active = GI50 up to about 1.1 µM and inactive = higher.
Entry note: the call must match one of T for active, F for inactive

Compound	Qualitative Label
Cc1cn2c(/C=N/NC(=N)N)c(-c3ccc([N+](=O)[O-])cc3)nc2s1	F
C(=C\c1ccccc1)/COc1ccccc1C(N1CCOCC1)n1nc2ccccc2n1 (stereo not drawn)	F
CC1OC(=O)C(C(C)C)NC(=O)C(C(C)C)OC(=O)C(C(C)C)NC(=O)C(C)OC(=O)C(C(C)C)NC(=O)C(C(C)C)OC(=O)C(C(C)C)NC(=O)C(C)OC(=O)C(C(C)C)NC(=O)C(C(C)C)OC(=O)C(C(C)C)NC1=O (stereo not drawn)	T
Cc1c(O)c(=O)ccn1C1OC(CO)C(O)C1O (stereo not drawn)	F
O=C(O)CNS(=O)(=O)c1ccc(NC(=O)c2ccc([N+](=O)[O-])cc2)cc1	F

How was Oc1nc2ccccc2c(O)c1Cc1ccccc1 classified in this test? F

Next entry: CON(C)C(=O)CCCO F

And the next one, CCOC(=O)/C(C(=O)c1ccccc1)=C1/NCCN1C ? F
